Quick reference: absorption maximum of the listed items.
EXPERIMENT_SUMMARY: solvent given as SMILES
CONDITION_DETAILS: in Cc1ccccc1
Return type: number; implicit unit nm.

The cases that follow already have their absorption maximum on record.
Cc1ccc2c(c1)c1cc(C)ccc1n2-c1cccc(-n2c3ccc(C)cc3c3cc(C)ccc32)c1C#N :: 368
O=Cc1ccc(C2=C3C=c4c(oc5ccccc45)=[N+]3[B-](F)(F)n3c2cc2c4ccccc4oc23)cc1 :: 597
O=c1oc2ccccc2cc1-c1cc2ccccc2o1 :: 373
c1ccc(C(=C(c2ccccc2)c2ccc(-c3nc4c(-c5ccc(C(=C(c6ccccc6)c6ccccc6)c6ccccc6)cc5)sc(-c5ccc(C(=C(c6ccccc6)c6ccccc6)c6ccccc6)cc5)c4nc3-c3ccc(C(=C(c4ccccc4)c4ccccc4)c4ccccc4)cc3)cc2)c2ccccc2)cc1 :: 538
Cc1ccc(N2C(c3ccccc3N(C)C)=NC(c3ccccc3)C2c2ccccc2)cc1 (centres undefined) :: 275
CCCCCCCCc1ccc(-n2c3c(c4c2c2c(n4-c4ccc(CCCCCCCC)cc4)-c4ccccc4NB2c2ccccc2)B(c2ccccc2)Nc2ccccc2-3)cc1 :: 387

Qu. # query: absorption maximum of entry "CCCCCCCCc1ccc(-c2ccc(/C=C(\C#N)c3ccc(-c4cccc5cccc(-c6ccc(/C(C#N)=C/c7ccc(-c8ccc(CCCCCCCC)cc8)cc7)cc6)c45)cc3)cc2)cc1"
Ans. 350

Qu. Fill in the blank: the reported absorption maximum of "c1ccc(-c2ccc(-c3nc(-n4c5ccccc5c5ccc6c7ccccc7n(-c7ccccc7)c6c54)nc(-n4c5ccccc5c5ccc6c7ccccc7n(-c7ccccc7)c6c54)n3)cc2)cc1" is ____.
Ans. 403

Qu. Requested field: absorption maximum. Item: "CCCN1C(=O)c2c3c(c4c(c2C1=O)CCc1cc(-c2ccc(N(C)C)cc2)c(OC)cc1-4)-c1cc(OC)c(-c2ccc(N(C)C)cc2)cc1CC3"
Ans. 412

Qu. I'd like to know its absorption maximum. The compound in question is "CCN(CC)c1ccc2cc(/C=C/C(O)=C3\CC/C(=C\c4cc5ccc(N(CC)CC)cc5oc4=O)C3=O)c(=O)oc2c1"
Ans. 511

Qu. I am curious: what absorption maximum value has been reported for "CC1(C)c2ccccc2N(c2ccc3c(c2)c(=O)c2cccc4c(=O)c5cc(N6c7ccccc7C(C)(C)c7ccccc76)ccc5n3c24)c2ccccc21" ?
Ans. 432.96

Qu. Need absorption maximum, item "CC1=C(c2cccs2)C(C)=[N+]2C1=C(c1ccc(O)cc1)c1c(C)c(-c3cccs3)c(C)n1[B-]2(F)F"
Ans. 530

Qu. Name the reported absorption maximum value associated with the compound "CC1(C)c2ccccc2N2c3ccccc3C3(c4cc(C#N)ccc4-c4ccc(C#N)cc43)c3cccc1c32"
Ans. 327.78

Qu. Item "Cc1cc(C)c(B(c2ccc(-c3cc4ccc5cccc6ccc(c3)c4c56)cc2)c2c(C)cc(C)cc2C)c(C)c1" has what recorded absorption maximum?
Ans. 378

----------
Measured absorption maximum of individual entries
EXPERIMENT_SUMMARY: solvent given as SMILES
CONDITION_DETAILS: in CCCO
Reply numerically in nm, unit not repeated.

Example entries and their recorded answers appear below.
Oc1cccc(/N=C/c2ccccc2Oc2ccccc2)c1 :: 328
O=Cc1cc(O)c(C=O)cc1O :: 415
CN(C)c1ccc(/C=C/C=C2\CCCC2=O)cc1 :: 422

Qu. # absorption maximum lookup, item "CN(C)c1ccc(/C=C/C=C2\CC/C(=C\C=C\c3ccc(N(C)C)cc3)C2=O)cc1"
Ans. 515

Qu. Would you mind telling me what absorption maximum value was observed for "O=c1cc(COc2ccc(I)cc2)c2c(ccc3ccccc32)o1" ?
Ans. 350

Qu. Item under review: "CCN(CC)c1cccc2c1ccc1c(=O)oc(-c3ccc(C(F)(F)F)cc3)cc12" . Reported absorption maximum?
Ans. 391

Qu. Name the recorded absorption maximum for "CCCN1C(=O)C(=CC=CC=C2Oc3ccccc3N2CCCS(=O)(=O)[O-])C(=O)N(CCC)C1=S" .
Ans. 561

Qu. Given "COCCOCCOCCOc1ccc(OCCOCCOCCOC)c(C=O)c1" , state its recorded absorption maximum.
Ans. 348

Qu. // absorption maximum lookup, key: "COc1ccc(C#Cc2ccc(C#N)cc2)cc1"
Ans. 328

Qu. Given "c1ccc(-c2cc(-c3ccc4ccc5c(-c6ccnc(-c7ccccn7)c6)ccc6ccc3c4c65)ccn2)nc1" , state its recorded absorption maximum.
Ans. 361

Qu. What does the record list as absorption maximum for "CN(C)c1ccc(/C=C/C(=O)O)cc1" ?
Ans. 355

Qu. I have this molecule here, "CN(C)c1ccc(/C=C/c2cc[n+](CCCOCC(COCCC[n+]3ccc(/C=C/c4ccc(N(C)C)cc4)cc3)(COCCC[n+]3ccc(/C=C/c4ccc(N(C)C)cc4)cc3)COCCC[n+]3ccc(/C=C/c4ccc(N(C)C)cc4)cc3)cc2)cc1" , and I need its recorded absorption maximum.
Ans. 482

Qu. Value lookup for absorption maximum; key = "CCC1=C(C)C2=C(C)c3c(C)c(CC)c(C)n3[B-](F)(F)[N+]2=C1C"
Ans. 518.9

Qu. Reported absorption maximum, molecule "FC(F)(F)c1ccc(/C=C/c2ccc(-c3nnc(-c4ccc(-c5cc6ccccc6s5)cc4)o3)cc2)cc1" : ____
Ans. 340

Qu. What measured absorption maximum goes with "COC1=C/C(=C\C=C2C=CN(Cc3ccc(Br)cc3)C=C2)C=CC1=O" ?
Ans. 577

----------
EXPERIMENT_SUMMARY: solvent given as SMILES
CONDITION_DETAILS: in CS(C)=O
Documented absorption maximum across a set of molecules
Respond with the bare value in nm.

CCC1=C(C)C(=O)n2c1cc1c(CCC(=O)OC)c(C)c(C)n1c2=O :: 427
C(=C\c1cnc2ccccc2n1)/c1ccc(N2CCCCC2)cc1 :: 423

Qu. I'd like to know its absorption maximum. The molecule in question is "COc1ccc2c3c([nH]c2c1)C(C)=NCC3"
Ans. 330

Qu. Endpoint output: absorption maximum of "Brc1ccc2cc3c4ccccc4nc(-c4ccco4)c3n2c1" . Value?
Ans. 411

Qu. Requested read-out: absorption maximum. Entry: "C(/C=C/Nc1cccc2ccccc12)=[NH+]c1cccc2ccccc12"
Ans. 391

Qu. Reported absorption maximum for "Cc1cccn2c1cc1c3ccccc3nc(-c3ccco3)c12" : what is it?
Ans. 400

----------
EXPERIMENT_SUMMARY: solvent given as SMILES
CONDITION_DETAILS: in CC#N
PROPERTY_NAME: absorption maximum
Lab note: write values as number then unit, every time.

CCN(CC)c1ccc(-c2nc3c(c4c2-c2ccccc2CC4)-c2ccccc2CC3)cc1 :: 360 nm
c1ccc(C2CCN3COc4c5ccccc5c5c6c7c(c2c3c46)C(c2ccccc2)CCN7CO5)cc1 (stereo not given) :: 405 nm
CCCCN1\C(=C/C=C/C=C/C2=[N+](CCCC)c3ccc4cc(Br)ccc4c3C2(C)C)C(C)(C)c2c1ccc1cc(Br)ccc21 :: 682 nm
Nc1cc(N)cc(-c2nc3ccccc3s2)c1 :: 360 nm
CNCCCC1c2ccccc2C=Cc2ccccc21 :: 293 nm
F[B-]1(F)n2cccc2C(c2ccc(-c3c4ccccc4c(-c4ccccc4)c4ccccc34)cc2)=C2C=CC=[N+]21 :: 498 nm
Cc1cc(=O)oc2cc3cc(O)ccc3cc12 :: 343 nm
CCCCCCN(CCCCCC)c1ccc(C#Cc2ccc(C#N)cc2)cc1 :: 379 nm

Qu. Can you look up the measured absorption maximum of "Cc1cccc2c1nc1c(=O)n(C)c(=O)nc-1n2C" for me?
Ans. 440 nm

Qu. Fill in: absorption maximum of "COCCN1C(=O)/C(=C/c2cccc(N(C)C)c2)N=C1C" is ___
Ans. 353 nm

Qu. Tell me the measured absorption maximum of "CN(C)c1ccc2nc(/C=C/c3cc4c5c(c3)CCCN5CCC4)c(=O)oc2c1" , please.
Ans. 507.5 nm

Qu. Please look up its absorption maximum: "Cc1cccc(Nc2ccccc2C(=O)O)c1C"
Ans. 351 nm

Qu. Need absorption maximum, item "COC(=O)c1nc2c(N)nc(N(C)C)nc2n1Cc1ccccc1"
Ans. 342 nm

Qu. Tell me the measured absorption maximum of "Cc1ccc(C2=C3C=CC=[N+]3[B-](F)(F)n3cccc32)cc1" , please.
Ans. 496.5 nm

Qu. What value of absorption maximum has been reported for the following compound? "CC1=CC(C)=[N+]2C1=C(c1c3ccccc3c(C)c3ccccc13)c1c(C)cc(C)n1[B-]2(F)F"
Ans. 503 nm

Qu. Report absorption maximum for O=P1(c2ccccc2)C(c2ccc(N(c3ccccc3)c3ccccc3)cc2)=Cc2cc3ccccc3cc21 (stereo not given) please.
Ans. 404 nm

Qu. Value lookup for absorption maximum; key = "CCC1(CC)c2cc(/C=C/c3ccc(/C=C/c4ccc5c(c4)C(CC)(CC)c4cc(N6c7ccccc7Sc7ccccc76)ccc4-5)cc3)ccc2-c2ccc(N3c4ccccc4Sc4ccccc43)cc21"
Ans. 441.5 nm

Qu. Which absorption maximum value belongs to "COc1cc(/C=C/c2ccccc2)cc(OC)c1" ?
Ans. 306 nm

Qu. Form field: reported absorption maximum of "CCN1\C(=C/C=C/C=C/C2=[N+](CC)c3ccc4ccccc4c3C2(C)C)C(C)(C)c2c1ccc1ccccc21"
Ans. 677 nm

Qu. Form field: reported absorption maximum of "CN(C)c1ccc(/C=C2\CCCC2=O)cc1"
Ans. 380 nm
